# TARGET OR SYSTEM: T1, Spy_(21-124) (UniProt P77754 44-147)
# T1 construct: source: E. coli BL21 (DE3), purified (Ni-NTA, cation exchange, SEC); not shown: His6, N-terminal, cleaved; SUMO, N-terminal, cleaved
# T1 sequence (looked up): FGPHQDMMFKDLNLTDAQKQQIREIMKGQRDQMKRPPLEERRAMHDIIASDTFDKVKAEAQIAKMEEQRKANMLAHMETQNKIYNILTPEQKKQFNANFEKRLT
# PROCEDURE SUMMARY: BLI; Octet RED96; client biotinylated and loaded on streptavidin sensors; Spy or Spy variant in solution at 0.25, 0.5, 1, 1.5 and 2 μM; 40 mM HEPES, 150 mM NaCl, pH 7.5; Kd calculated as koff/kon
# COND: both partners purified
MEASURED ATTRIBUTE: pKd
Please note pKd is a logarithmic value: minus log10 of concentration in mol/L. Answer with that number alone.

// sample Im7 H40W L53A I54A (natural protein, biotin (EZ-link NHS-biotin, 1:1 molar ratio of biotin to protein), Im7 (colicin E7 immunity protein) with H40W L53A I54A; Spy was made with an N-terminal His6-SUMO tag that was cleaved; also called Im7AAW; partially folded client; source: purified by a similar procedure to Spy) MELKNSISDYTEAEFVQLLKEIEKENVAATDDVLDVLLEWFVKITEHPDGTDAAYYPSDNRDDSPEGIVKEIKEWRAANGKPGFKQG , its pKd was 5.74
